Recorded measurements of viability at 10 µM, one per entry
- test_method_notes: Cytotoxicity against human H1299 cells at 10 uM after 48 hrs by MTT assay
- Assay type: functional
- condition_label: NCI-H1299, 48 h
Give just the numeric value; % need not be written.

For orientation, consider the following solved cases.
- O=C1c2ccccc2C(=O)c2c1ccc1nc(-c3ccc(Br)cc3)[nH]c21: 85
- Cc1nc2ccc3c(c2[nH]1)C(=O)c1ccccc1C3=O: 44

Request: Fill blank: measured viability at 10 µM of the molecule CC1(C)Nc2ccc3c(c2N1)C(=O)c1ccccc1C3=O is ____.
Response: 93

Request: Fill blank: measured viability at 10 µM of the molecule CCc1nc2ccc3c(c2[nH]1)C(=O)c1ccccc1C3=O is ____.
Response: 82

* * *

- target: Telomerase reverse transcriptase (Homo sapiens) (UniProt O14746)
- Sequence (O14746 whole entry): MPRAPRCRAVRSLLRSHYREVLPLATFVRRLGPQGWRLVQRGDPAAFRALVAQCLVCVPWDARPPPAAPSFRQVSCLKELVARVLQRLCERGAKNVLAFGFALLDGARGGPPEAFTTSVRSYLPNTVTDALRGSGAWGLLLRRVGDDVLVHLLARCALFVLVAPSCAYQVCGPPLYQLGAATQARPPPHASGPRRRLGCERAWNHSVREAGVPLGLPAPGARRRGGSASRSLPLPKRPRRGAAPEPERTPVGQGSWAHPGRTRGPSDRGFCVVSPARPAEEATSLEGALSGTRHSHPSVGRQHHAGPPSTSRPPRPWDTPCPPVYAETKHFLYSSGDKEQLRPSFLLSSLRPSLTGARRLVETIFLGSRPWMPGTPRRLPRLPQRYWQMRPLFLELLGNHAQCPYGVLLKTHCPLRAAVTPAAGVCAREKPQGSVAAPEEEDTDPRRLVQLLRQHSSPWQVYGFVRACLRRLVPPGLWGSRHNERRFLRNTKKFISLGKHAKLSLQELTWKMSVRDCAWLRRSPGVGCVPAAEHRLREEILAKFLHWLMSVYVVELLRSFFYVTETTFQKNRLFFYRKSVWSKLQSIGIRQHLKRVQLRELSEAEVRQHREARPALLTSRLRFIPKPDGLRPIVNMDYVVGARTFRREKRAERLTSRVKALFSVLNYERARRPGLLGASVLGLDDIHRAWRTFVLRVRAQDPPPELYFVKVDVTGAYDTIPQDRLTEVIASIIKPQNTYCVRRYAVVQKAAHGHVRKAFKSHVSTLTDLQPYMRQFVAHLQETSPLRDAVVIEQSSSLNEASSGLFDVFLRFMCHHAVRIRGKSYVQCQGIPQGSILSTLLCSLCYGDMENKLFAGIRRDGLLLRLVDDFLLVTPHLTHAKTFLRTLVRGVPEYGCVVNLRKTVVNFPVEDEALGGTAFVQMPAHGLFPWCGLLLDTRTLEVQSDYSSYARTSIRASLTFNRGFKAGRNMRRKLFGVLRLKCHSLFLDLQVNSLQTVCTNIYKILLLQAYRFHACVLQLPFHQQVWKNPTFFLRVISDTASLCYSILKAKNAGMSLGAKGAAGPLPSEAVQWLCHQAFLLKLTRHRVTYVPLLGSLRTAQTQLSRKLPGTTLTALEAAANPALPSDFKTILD
- test_method_notes: Inhibition of TERT in human H1299 cells assessed as residual transcriptional activity at 10 uM after 24 hrs by SEAP reporter gene assay; values are per cent of control
assay_metric: residual activity
Reply with the number, then its unit.

For orientation, consider the following solved cases.
- CCC(C)c1nc2ccc3c(c2[nH]1)C(=O)c1ccccc1C3=O (stereo unspecified): 58%
- O=C1c2ccccc2C(=O)c2c1ccc1nc(CCl)[nH]c21: 81%
- Cc1nc2ccc3c(c2nc1C)C(=O)c1ccccc1C3=O: 88%

Request: API: value(readout=residual activity, system=Telomerase reverse transcriptase (Homo sapiens) (UniProt O14746)) for record CC(C)(C)c1nc2ccc3c(c2[nH]1)C(=O)c1ccccc1C3=O
Response: 87%

Request: API: value(readout=residual activity, system=Telomerase reverse transcriptase (Homo sapiens) (UniProt O14746)) for record O=C1c2ccccc2C(=O)c2c1ccc1nc(-c3ccc([N+](=O)[O-])cc3)[nH]c21
Response: 62%

Request: API: value(readout=residual activity, system=Telomerase reverse transcriptase (Homo sapiens) (UniProt O14746)) for record O=C1c2ccccc2C(=O)c2c1ccc1nc(-c3ccc(Br)cc3)[nH]c21
Response: 71%

Request: API: value(readout=residual activity, system=Telomerase reverse transcriptase (Homo sapiens) (UniProt O14746)) for record O=C1c2ccccc2C(=O)c2c1ccc1nsnc21
Response: 10%

* * *

- Test system: T47D
- test_method_notes: Antiproliferative activity against human T47D cells assessed as cell growth at 10 uM
- Assay type: functional
- condition_label: read-out: Activity
Recorded measurements of growth at 10 µM, one per entry

- CC1(C)Nc2ccc3c(c2N1)C(=O)c1ccccc1C3=O: 83%

Request: Fill blank: measured growth at 10 µM of the molecule COc1cc(-c2nc3ccc4c(c3[nH]2)C(=O)c2ccccc2C4=O)ccc1O is ____.
Response: 83.9%

Request: Fill blank: measured growth at 10 µM of the molecule O=C1c2ccccc2C(=O)c2c1ccc1nc(-c3ccc(Br)cc3)[nH]c21 is ____.
Response: 97.3%

Request: Fill blank: measured growth at 10 µM of the molecule O=C1c2ccccc2C(=O)c2c1ccc1nsnc21 is ____.
Response: -45.5%

Request: Fill blank: measured growth at 10 µM of the molecule O=C1c2ccccc2C(=O)c2c1ccc1nc(-c3ccc4c(c3)OCO4)[nH]c21 is ____.
Response: 107%

Request: Fill blank: measured growth at 10 µM of the molecule N#Cc1ccc(-c2nc3ccc4c(c3[nH]2)C(=O)c2ccccc2C4=O)cc1 is ____.
Response: 85.1%
